- target: human GABAA α1β2γ1 receptor (Homo sapiens (Human), UniProt P14867+Q8N1C3)
- assay-procedure: Radioligand binding assay, competition for [3H]RO7239181, γ1-containing GABAA subtypes
- assay-setup: Ki h-GABAA α1β2γ1, Table 3, reference compounds and examples
Consider the following compounds; for each one, report its Ki.
One number for each entry, in µM.

These solved cases illustrate the format of a correct answer.
Cc1nnc2n1-c1sc3c(c1C(c1c(F)cccc1F)=N[C@H]2C)COCCC3 : 0.0753
Cc1nnc2n1-c1sc3c(c1C(c1c(F)cccc1F)=N[C@H]2C)COCCO3 : 0.0526

GET /values?readout=Ki&system=human GABAA α1β2γ1 receptor (Homo sapiens (Human), UniProt P14867+Q8N1C3)&item= "Cc1nnc2n1-c1sc3c(c1C(c1c(F)cccc1F)=NC2)CCCCC3"
0.0197
